Test: Plasma protein binding, mouse plasma
Format: in vitro ADME
Details: mouse, plasma, mouse plasma protein binding; read-out: PPB (m) (converted)
Observed Property: fraction unbound at 4 h, 100 µM

>>> recorded_number("O=P(O)(O)CP(=O)(O)OC[C@H]1O[C@@H](n2ccc3c(-c4cccc5ccoc45)ncnc32)[C@H](O)[C@@H]1O")
0.542
>>> recorded_number("O=P(O)(O)CP(=O)(O)OC[C@H]1O[C@@H](n2ccc3c(-c4ccc5cnccc5c4)ncnc32)[C@H](O)[C@@H]1O")
0.737
>>> recorded_number("O=P(O)(O)CP(=O)(O)OC[C@H]1O[C@@H](n2ccc3c(-c4ccccc4)ncnc32)[C@H](O)[C@@H]1O")
0.788
>>> recorded_number("COc1ccc2cc(-c3nc(Cl)nc4c3ccn4[C@@H]3O[C@H](COP(=O)(O)CP(=O)(O)O)[C@@H](O)[C@H]3O)ccc2c1")
0.088
>>> recorded_number("O=P(O)(O)CP(=O)(O)OC[C@H]1O[C@@H](n2ccc3c(-c4ccc(F)c5ccccc45)ncnc32)[C@@H](F)[C@@H]1O [34A.23]")
0.017

Just for reference, paper PMC12797170 is where these values come from.
